FYI, the data here is from ChEMBL document CHEMBL6103539.

Target: Vascular endothelial growth factor receptor 2 (Homo sapiens, UniProt P35968)
Sequence (P35968 whole entry): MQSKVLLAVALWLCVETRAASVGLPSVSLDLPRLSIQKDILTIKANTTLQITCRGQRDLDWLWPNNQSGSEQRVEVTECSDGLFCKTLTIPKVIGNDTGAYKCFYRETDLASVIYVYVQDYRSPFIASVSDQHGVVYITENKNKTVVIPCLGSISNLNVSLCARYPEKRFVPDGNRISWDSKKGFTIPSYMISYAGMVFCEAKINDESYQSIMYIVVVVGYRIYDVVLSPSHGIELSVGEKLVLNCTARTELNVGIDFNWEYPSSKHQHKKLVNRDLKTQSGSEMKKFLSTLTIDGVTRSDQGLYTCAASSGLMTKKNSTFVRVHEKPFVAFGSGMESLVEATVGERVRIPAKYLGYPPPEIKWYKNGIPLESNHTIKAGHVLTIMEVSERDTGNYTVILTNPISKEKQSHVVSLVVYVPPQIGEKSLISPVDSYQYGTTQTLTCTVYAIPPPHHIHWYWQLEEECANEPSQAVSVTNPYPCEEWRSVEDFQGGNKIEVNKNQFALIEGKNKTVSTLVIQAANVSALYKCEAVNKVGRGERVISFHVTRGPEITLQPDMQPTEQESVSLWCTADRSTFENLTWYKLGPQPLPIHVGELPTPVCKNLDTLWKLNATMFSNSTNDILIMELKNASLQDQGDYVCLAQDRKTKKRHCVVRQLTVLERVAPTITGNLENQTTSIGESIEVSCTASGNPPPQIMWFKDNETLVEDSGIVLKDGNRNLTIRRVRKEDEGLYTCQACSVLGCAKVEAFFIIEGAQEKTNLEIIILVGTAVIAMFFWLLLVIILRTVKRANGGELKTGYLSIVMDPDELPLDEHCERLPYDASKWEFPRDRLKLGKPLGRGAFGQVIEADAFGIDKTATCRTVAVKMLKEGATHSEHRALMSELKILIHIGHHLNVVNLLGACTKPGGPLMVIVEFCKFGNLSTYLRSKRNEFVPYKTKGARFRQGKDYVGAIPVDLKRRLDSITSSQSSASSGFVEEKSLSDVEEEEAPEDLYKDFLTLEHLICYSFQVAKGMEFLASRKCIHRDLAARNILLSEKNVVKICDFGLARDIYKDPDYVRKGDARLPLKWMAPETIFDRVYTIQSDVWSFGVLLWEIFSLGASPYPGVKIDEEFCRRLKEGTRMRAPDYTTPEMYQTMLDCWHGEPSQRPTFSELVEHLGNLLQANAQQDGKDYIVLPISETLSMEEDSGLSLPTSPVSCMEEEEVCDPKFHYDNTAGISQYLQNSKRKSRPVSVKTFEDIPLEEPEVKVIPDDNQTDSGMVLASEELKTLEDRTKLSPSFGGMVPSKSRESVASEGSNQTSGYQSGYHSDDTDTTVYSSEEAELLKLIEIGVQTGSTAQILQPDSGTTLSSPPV
Assay: Inhibition of VEGFR-2 (unknown origin)
ASSAY_READOUT: IC50

• O=C(CN1C(=O)S/C(=C\c2ccc(F)cc2)C1=O)Nc1nc2ccc([N+](=O)[O-])cc2s1 = 91 nM

GET /value?item= COc1cc(/C=N/NC(=O)c2nnn(Cc3nc4ccccc4[nH]3)c2C)ccc1O &field=IC50 returns 229 nM

====

Test system: MCF7
Test: Anticancer activity against human MCF7 cells
Assay type: functional, cell-based
ASSAY_READOUT: IC50 (µM)
Answers are plain numbers, in µM.

GET /value?item= O=C(CN1C(=O)S/C(=C\c2ccc(F)cc2)C1=O)Nc1nc2ccc([N+](=O)[O-])cc2s1 &field=IC50 returns 3.84

====

Test system: DU-145
Experiment: Antiproliferative activity against human DU-145 cells
Type: functional, cell-based
ASSAY_READOUT: IC50 (µM)
Answers are plain numbers, in µM.

Measured IC50 for this entry COc1nc(C(=O)Nc2nc3cc(F)ccc3[nH]2)ccc1-n1cnc(C)c1 on DU-145: 9.2

====

Molecular target: Vascular endothelial growth factor receptor 2 (Homo sapiens)
Experiment: Inhibition of VEGFR2 (unknown origin) using poly (Glu,Tyr) 4:1 as substrate measured after 1 hr in presence of ATP by ELISA method
ASSAY_READOUT: IC50 (nM)
Give bare numbers, in nM.

GET /value?item= O=C(CCSc1nc2ccccc2o1)Nc1ccc(S(=O)(=O)NC(=O)NC2CCCCC2)cc1 &field=IC50 returns 80

====

Please provide measured pIC50 for the entries that follow.
Tested on: UO-31
Assay: Antiproliferative activity against human UO-31 cells assessed as reduction in cell viability incubated for 48 hrs by MTT assay
Type: functional, cell-based
Conditions: UO-31, 48 h
Give bare numbers, as −log10 of the molar value.

• O=C(CCc1nnc2sc(COc3ccccc3)nn12)c1nc2cc([N+](=O)[O-])ccc2[nH]1 = 4.48

Next compound, pIC50 to be filled in.
GET /value?item= COc1cc(C2OC(CCC(=O)c3nc4cc([N+](=O)[O-])ccc4[nH]3)=NN2C(C)=O)cc(OC)c1OC (configuration not stated) &field=pIC50 returns 4.72

====

Test: Antiproliferative activity against human HUVEC cells assessed as reduction in cell growth incubated for 48 hrs by MTT assay
Format: toxicity, cell-based
ASSAY_READOUT: IC50 at 48 h (µM)
Numbers only, in µM.

GET /value?item= O=C(Nc1ccc(OC(F)(F)F)cc1)Nc1ccc2oc(-c3ccccc3Cl)nc2c1 &field=IC50 at 48 h returns 8.46
